Assay: Ratio of drug level in brain to blood of rat at 0.5 mg/kg/hr administered by infusion for 1 hrs
Details: brain and blood, intravenous
measurementType: Kp at 1 h
Write the number on its own, no unit after it.

Asked: Specify reported Kp at 1 h for the molecule shown: `O=C([O-])c1cccc(Cc2cc(Cl)ccc2OCc2ccc(Cl)cc2F)n1.[Na+]`
Given back: 0.21

----------
Test: Drug level in rat blood at 0.5 mg/kg/hr administered by infusion for 1 hrs
Type: ADME, organism-based
Conditions: intravenous, read-out: Drug uptake
measurementType: concentration at 1 h (nM)
Write it as a number; the unit nM goes unstated.

Asked: Specify reported concentration at 1 h for the compound shown: `O=C([O-])c1cccc(Cc2cc(Cl)ccc2OCc2ccc(Cl)cc2F)n1.[Na+]`
Given back: 1800

----------
Test: Drug level in blood of complete Freund's adjuvant induced rat inflammatory pain model at 10 mg/kg, bid measured after 1 hr on day 1
Type: ADME, organism-based
Set-up: dose 10 mg/kg
Conditions: read-out: Drug uptake
measurementType: concentration at 1 h (µM)
Write it as a number; the unit µM goes unstated.

Asked: Specify reported concentration at 1 h for the compound shown: `O=C([O-])c1cccc(Cc2cc(Cl)ccc2OCc2ccc(Cl)cc2F)n1.[Na+]`
Given back: 2.39

----------
Overview of reported concentration at 1 h across a group of molecules:
Assay: Drug level in brain of complete Freund's adjuvant-induced rat inflammatory pain model at 1 mg/kg, po administered after 23 hrs of adjuvant challenge measured after 1 hr
Type: ADME, organism-based
Design: dose 1 mg/kg, route oral
Conditions: read-out: Drug uptake
Write it as a number; the unit nM goes unstated.

1) O=C([O-])c1cccc(Cc2cc(Cl)ccc2OCc2ccc(F)cc2Cl)n1.[Na+] : 93

Now, please, on to the next molecule.
Asked: Specify reported concentration at 1 h for the molecule shown: `O=C([O-])c1cccc(Cc2cc(Cl)ccc2OCc2ccc(Cl)cc2F)n1.[Na+]`
Given back: 60

----------
Assay: Drug level in rat brain at 0.5 mg/kg/hr administered by infusion for 12 hrs
Type: ADME, organism-based
Settings: intravenous, read-out: Drug uptake
measurementType: concentration at 12 h (nM)
Write it as a number; the unit nM goes unstated.

Asked: Specify reported concentration at 12 h for the compound shown: `O=C([O-])c1cccc(Cc2cc(Cl)ccc2OCc2ccc(Cl)cc2F)n1.[Na+]`
Given back: 225

----------
Test: Clearance in Sprague-Dawley rat blood at 1 mg/kg administered by intravenous infusion for 1 hr
Type: ADME, organism-based
Parameters: dose 1 mg/kg, route intravenous
measurementType: clearance (mL/min/kg)
Write it as a number; the unit mL/min/kg goes unstated.

Asked: Specify reported clearance for the compound shown: `O=C([O-])c1cccc(Cc2cc(Cl)ccc2OCc2ccc(Cl)cc2F)n1.[Na+]`
Given back: 19

----------
Molecular target: UniProtKB P08684
Sequence (P08684 whole entry): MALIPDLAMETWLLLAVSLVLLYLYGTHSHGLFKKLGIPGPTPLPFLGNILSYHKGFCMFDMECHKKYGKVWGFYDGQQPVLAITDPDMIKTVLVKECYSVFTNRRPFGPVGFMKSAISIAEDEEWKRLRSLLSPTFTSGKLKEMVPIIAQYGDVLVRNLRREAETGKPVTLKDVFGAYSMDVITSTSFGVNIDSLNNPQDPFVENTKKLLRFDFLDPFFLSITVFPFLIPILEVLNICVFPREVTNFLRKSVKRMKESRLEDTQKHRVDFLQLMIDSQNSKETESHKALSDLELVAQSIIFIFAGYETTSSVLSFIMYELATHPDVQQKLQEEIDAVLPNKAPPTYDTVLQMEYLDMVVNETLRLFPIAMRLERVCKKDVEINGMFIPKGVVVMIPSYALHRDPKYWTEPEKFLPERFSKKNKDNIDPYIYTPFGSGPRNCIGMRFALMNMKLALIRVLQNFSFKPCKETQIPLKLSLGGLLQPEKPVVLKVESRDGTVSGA
Experiment: Inhibition of human CYP3A4 using DEF substrate
Assay type: ADME
measurementType: pIC50
In simple prose, pIC50 is minus the logarithm base ten of a concentration in moles per litre.

Asked: Specify reported pIC50 for the molecule shown: `O=C([O-])c1cccc(Cc2cc(Cl)ccc2OCc2ccc(F)cc2Cl)n1.[Na+]`
Given back: 4.46

----------
Assay: Drug level in mouse brain at 0.5 mg/kg/hr administered by infusion for 12 hrs
Format: ADME, organism-based
Conditions: intravenous, read-out: Drug uptake
measurementType: concentration at 12 h (nM)
Write it as a number; the unit nM goes unstated.

Asked: Specify reported concentration at 12 h for the molecule shown: `O=C([O-])c1cccc(Cc2cc(Cl)ccc2OCc2ccc(Cl)cc2F)n1.[Na+]`
Given back: 56

----------
Overview of reported concentration at 1 h across a group of molecules:
Assay: Drug level in brain of complete Freund's adjuvant-induced rat inflammatory pain model at 3 mg/kg, po administered after 23 hrs of adjuvant challenge measured after 1 hr
Format: ADME, organism-based
Set-up: dose 3 mg/kg, route oral
Conditions: read-out: Drug uptake
Write it as a number; the unit nM goes unstated.

1. O=C([O-])c1cccc(Cc2cc(Cl)ccc2OCc2ccc(F)cc2Cl)n1.[Na+] : 256

Now, please, on to the next molecule.
Asked: Specify reported concentration at 1 h for the molecule shown: `O=C([O-])c1cccc(Cc2cc(Cl)ccc2OCc2ccc(Cl)cc2F)n1.[Na+]`
Given back: 175

----------
Molecular target: Cytochrome P450 2D6 (Homo sapiens, UniProt P10635)
Sequence (P10635 whole entry): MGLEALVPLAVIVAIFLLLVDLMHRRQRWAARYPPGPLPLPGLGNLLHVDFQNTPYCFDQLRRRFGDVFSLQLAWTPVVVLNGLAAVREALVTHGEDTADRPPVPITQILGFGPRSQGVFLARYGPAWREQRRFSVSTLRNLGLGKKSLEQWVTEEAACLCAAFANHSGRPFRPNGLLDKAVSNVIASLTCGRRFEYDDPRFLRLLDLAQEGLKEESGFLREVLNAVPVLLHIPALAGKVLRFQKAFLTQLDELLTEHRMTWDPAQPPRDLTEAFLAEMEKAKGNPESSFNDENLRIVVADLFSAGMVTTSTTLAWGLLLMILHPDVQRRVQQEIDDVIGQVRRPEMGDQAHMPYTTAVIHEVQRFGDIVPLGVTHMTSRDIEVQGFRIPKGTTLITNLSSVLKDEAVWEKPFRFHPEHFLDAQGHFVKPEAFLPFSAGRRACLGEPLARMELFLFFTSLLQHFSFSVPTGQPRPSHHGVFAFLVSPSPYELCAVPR
measurementType: IC50

Asked: Specify reported IC50 for the compound shown: `O=C(O)c1cccc(Cc2cc(Cl)ccc2OCc2ccc(Cl)cc2Cl)n1`
Given back: > 50 µM

----------
Assay: Metabolic stability in human liver microsomes assessed as compound turnover after 30 mins
Type: ADME, Microsome
Conditions: read-out: Stability
measurementType: metabolised at 0.5 h

Asked: Specify reported metabolised at 0.5 h for the compound shown: `O=C(O)c1cccc(Cc2cc(Cl)ccc2OCc2ccc(Cl)cc2Cl)n1`
Given back: < 15%

----------
Assay: Drug level in Landrace pig blood at 0.5 mg/kg/hr administered by infusion for 1 hrs
Type: ADME, organism-based, Sus scrofa
Conditions: intravenous, read-out: Drug uptake
measurementType: concentration at 1 h (nM)
Write it as a number; the unit nM goes unstated.

Asked: Specify reported concentration at 1 h for the compound shown: `O=C([O-])c1cccc(Cc2cc(Cl)ccc2OCc2ccc(Cl)cc2F)n1.[Na+]`
Given back: 2300

----------
Experiment: Half life in Sprague-Dawley rat at 1 mg/kg administered by intravenous infusion for 1 hr
Format: ADME, organism-based
Parameters: dose 1 mg/kg, route intravenous
Details: in vivo
measurementType: half-life (h)
Write it as a number; the unit h goes unstated.

Asked: Specify reported half-life for the molecule shown: `O=C([O-])c1cccc(Cc2cc(Cl)ccc2OCc2ccc(Cl)cc2F)n1.[Na+]`
Given back: 2.3

----------
Test: Solubility in FaSSIF after 0.5 hrs
Format: physicochemical
measurementType: solubility at 0.5 h (µg/mL)
Write it as a number; the unit µg/mL goes unstated.

Asked: Specify reported solubility at 0.5 h for the compound shown: `O=C([O-])c1cccc(Cc2cc(Cl)ccc2OCc2ccc(Cl)cc2F)n1.[Na+]`
Given back: 60

----------
Assay: Oral bioavailability in cynomolgus monkey at 3 mg/kg
Format: ADME, organism-based, Macaca fascicularis
Details: in vivo
measurementType: bioavailability (%)
Write it as a number; the unit % goes unstated.

Asked: Specify reported bioavailability for the compound shown: `O=C([O-])c1cccc(Cc2cc(Cl)ccc2OCc2ccc(Cl)cc2F)n1.[Na+]`
Given back: 7

----------
Biological target: Cytochrome P450 2C19 (Homo sapiens)
Sequence (P33261 whole entry): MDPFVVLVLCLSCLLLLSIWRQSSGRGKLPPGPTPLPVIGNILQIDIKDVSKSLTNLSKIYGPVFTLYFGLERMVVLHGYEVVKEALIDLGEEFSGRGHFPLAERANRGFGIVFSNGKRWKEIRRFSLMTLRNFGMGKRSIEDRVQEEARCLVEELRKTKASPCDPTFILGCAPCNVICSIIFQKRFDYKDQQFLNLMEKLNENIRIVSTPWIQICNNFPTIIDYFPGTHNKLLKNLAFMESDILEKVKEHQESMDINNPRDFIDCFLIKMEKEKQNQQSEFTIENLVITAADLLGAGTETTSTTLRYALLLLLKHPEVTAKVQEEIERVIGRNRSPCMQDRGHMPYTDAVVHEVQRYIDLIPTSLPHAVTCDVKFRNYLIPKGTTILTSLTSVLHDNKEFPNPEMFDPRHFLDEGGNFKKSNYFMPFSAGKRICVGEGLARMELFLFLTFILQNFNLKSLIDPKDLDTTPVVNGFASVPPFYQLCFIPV
measurementType: pIC50
In simple prose, pIC50 is minus the logarithm base ten of a concentration in moles per litre.

Asked: Determine reported pIC50 for `O=C([O-])c1cccc(Cc2cc(Cl)ccc2OCc2ccc(Cl)cc2F)n1.[Na+]` ; test system: Cytochrome P450 2C19 (Homo sapiens).
Given back: 4.07

----------
Target: Prostaglandin E2 receptor EP1 subtype (Homo sapiens, UniProt P34995)
Sequence (P34995 whole entry): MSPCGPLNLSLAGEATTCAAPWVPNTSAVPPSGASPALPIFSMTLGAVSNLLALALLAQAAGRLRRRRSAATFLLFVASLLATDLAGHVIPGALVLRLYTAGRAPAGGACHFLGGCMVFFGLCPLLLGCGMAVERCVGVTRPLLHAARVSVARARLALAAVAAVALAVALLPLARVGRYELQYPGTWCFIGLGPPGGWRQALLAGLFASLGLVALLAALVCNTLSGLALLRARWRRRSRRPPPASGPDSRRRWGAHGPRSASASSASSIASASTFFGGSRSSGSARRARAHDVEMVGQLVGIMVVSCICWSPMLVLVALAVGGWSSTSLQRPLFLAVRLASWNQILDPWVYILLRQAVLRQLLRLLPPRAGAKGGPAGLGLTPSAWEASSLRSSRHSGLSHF
Assay: Antagonist activity at human recombinant EP1 receptor expressed in CHO cells assessed as inhibition of PGE2-mediated intracellular calcium mobilization by FLIPR method
Assay type: functional, cell-based
Overview of reported Ki across a group of compounds:
Write it as a number; the unit nM goes unstated.

1) O=C(O)c1cccc(Cc2cc(Cl)ccc2OCc2ccc(Cl)cc2Cl)n1 : 25.1
2) O=C([O-])c1cccc(Cc2cc(Cl)ccc2OCc2ccc(Cl)cc2F)n1.[Na+] : 7.94

Now, please, on to the next compound.
Asked: Specify reported Ki for the compound shown: `O=C([O-])c1cccc(Cc2cc(Cl)ccc2OCc2ccc(F)cc2Cl)n1.[Na+]`
Given back: 100

----------
Overview of reported IC50 across a group of compounds:
Molecular target: Prostaglandin E2 receptor EP1 subtype (Homo sapiens, UniProt P34995)
Experiment: Displacement of [3H]PGE2 from human EP1 receptor expressed in CHO cells
Returns: string containing the number followed by the unit.

# count of solved cases: 3
1. O=C(O)c1cccc(Cc2cc(Cl)ccc2OCc2ccc(F)cc2F)n1 : 25.1 nM
2. O=C(O)c1cccc(Cc2cc(Cl)ccc2OCc2c(F)cc(F)cc2F)n1 : 79.4 nM
3. O=C([O-])c1cccc(Cc2cc(Cl)ccc2OCc2ccc(F)cc2Cl)n1.[Na+] : 12.6 nM

Asked: Specify reported IC50 for the compound shown: `O=C(O)c1cccc(Cc2cc(Cl)ccc2OCc2ccc(Cl)cc2Cl)n1`
Given back: 10 nM

----------
Assay: Ratio of drug level in brain to blood in complete Freund's adjuvant induced rat inflammatory pain model at 3 mg/kg, po bid for 5 days measured after 1 hr on day 5
measurementType: Kp at 1 hr

Asked: Specify reported Kp at 1 hr for the compound shown: `O=C([O-])c1cccc(Cc2cc(Cl)ccc2OCc2ccc(Cl)cc2F)n1.[Na+]`
Given back: 0.34

----------
Experiment: Clearance in cynomolgus monkey blood at 1 mg/kg administered by intravenous infusion for 1 hr
Type: ADME, organism-based, Macaca fascicularis
Set-up: dose 1 mg/kg, route intravenous
measurementType: clearance (mL/min/kg)
Write it as a number; the unit mL/min/kg goes unstated.

Asked: Specify reported clearance for the compound shown: `O=C([O-])c1cccc(Cc2cc(Cl)ccc2OCc2ccc(Cl)cc2F)n1.[Na+]`
Given back: 41
